# studyConditions: in ethyl acetate, 298.15 K
reportedMetric: solubility (mole fraction)
When you answer, write just the number.

What value of solubility (mole fraction) has been recorded for this entry: N=C(N)NC(N)=S
0.00391

----------
# studyConditions: in n-propanol, 293.15 K
reportedMetric: solubility (mole fraction)
Enter the number alone.

Quick check: solubility (mole fraction) of N=C(N)NC(N)=S ?
0.00393

----------
# studyConditions: in n-butanol, 308.15 K
reportedMetric: solubility (mole fraction)

Any idea what solubility (mole fraction) was measured for N=C(N)NC(N)=S ?
0.00314

----------
# studyConditions: in ethanol, 313.15 K
reportedMetric: solubility (mole fraction)
# output: bare number, no unit

What does the data say about its solubility (mole fraction)? Entry: N=C(N)NC(N)=S
0.0106

----------
# studyConditions: in acetonitrile, 283.15 K
reportedMetric: solubility (mole fraction)
Reply with the value as a number alone.

Suppose we examine the compound N=C(N)NC(N)=S ; what solubility (mole fraction) value has been reported?
0.00365

----------
# studyConditions: in methanol, 283.15 K
reportedMetric: solubility (mole fraction)
// keep it numeric: no unit symbol after the value

Which solubility (mole fraction) value is on record for N=C(N)NC(N)=S ?
0.00558

----------
# studyConditions: in acetonitrile, 288.15 K
reportedMetric: solubility (mole fraction)
Lab note: write the figure by itself, no unit.

Would you mind telling me what solubility (mole fraction) value was observed for N=C(N)NC(N)=S ?
0.00428

----------
# studyConditions: in n-butanol, 298.15 K
reportedMetric: solubility (mole fraction)
The response must contain the number and no unit.

I'd like to know its solubility (mole fraction). The compound in question is N=C(N)NC(N)=S
0.00162

----------
# studyConditions: in 1,4-dioxane, 303.15 K
reportedMetric: solubility (mole fraction)
Returns: the value as a bare number; no unit string appended.

Reported solubility (mole fraction) for N=C(N)NC(N)=S : what is it?
0.0151

----------
# studyConditions: in n-propanol, 298.15 K
reportedMetric: solubility (mole fraction)

Consider the molecule N=C(N)NC(N)=S and give its measured solubility (mole fraction).
0.00468

----------
# studyConditions: in NMP, 313.15 K
reportedMetric: solubility (mole fraction)
Write the number on its own, no unit after it.

# get_value(readout='solubility (mole fraction)', item= N=C(N)NC(N)=S )
0.0389

----------
# studyConditions: in ethyl acetate, 318.15 K
reportedMetric: solubility (mole fraction)
Lab note: record just the number, no unit beside it.

# lookup: solubility (mole fraction) of N=C(N)NC(N)=S
0.00797

----------
# studyConditions: in toluene, 318.15 K
reportedMetric: solubility (mole fraction)
// no unit string in output, number only

Quick one: solubility (mole fraction) for N=C(N)NC(N)=S ?
0.000223

----------
# studyConditions: in isopropanol, 318.15 K
reportedMetric: solubility (mole fraction)
API note: the answer field is a bare number with no unit suffix.

Entry N=C(N)NC(N)=S has what solubility (mole fraction)?
0.0069

----------
# studyConditions: in NMP, 283.15 K
reportedMetric: solubility (mole fraction)
The reply should be a number, written without any unit.

So what's the measured solubility (mole fraction) for this one? N=C(N)NC(N)=S
0.0139

----------
# studyConditions: in acetone, 288.15 K
reportedMetric: solubility (mole fraction)
Respond using a number only.

Reported solubility (mole fraction) for N=C(N)NC(N)=S : what is it?
0.0123
